# ASSAY NAME: in vitro
# MEASUREMENT PARAMETERS: African green monkey
Catalogue of compounds with associated CC50
PROPERTY NAME: CC50

• O=C(NC(=O)c1ccsc1NC(=O)c1nc2cnccc2s1)OCc1ccccc1F = 25 to 50 µg/mL
• CCOC(=O)NC(=O)c1ccsc1NC(=O)c1nc2c(N3CCOCC3)ccnc2s1 = 25 to 50 µg/mL
• O=C(Nc1sccc1C(=O)NC1CCNCC1)c1nc2ccccc2s1 = > 50 µg/mL
• CCOC(=O)NC(=O)c1ccsc1NC(=O)c1nc2cc(F)ccc2s1 = < 25 µg/mL
• CCOC(=O)NC(=O)c1cc(C(=O)OCC)sc1NC(=O)c1nc2cnccc2s1 = 25 to 50 µg/mL

* * *

# ASSAY NAME: in vitro
# MEASUREMENT PARAMETERS: African green monkey
Catalogue of compounds with associated CC50
PROPERTY NAME: CC50

* CCOC(=O)NC(=O)c1c(C)csc1NC(=O)c1nc2ccccc2s1 | > 50 µg/mL
* CCOC(=O)NC(=O)c1ccsc1NC(=O)c1ccc2cccnc2c1 | > 50 µg/mL
* CCOC(=O)NC(=O)c1ccsc1NC(=O)c1sc2ccccc2c1Cl | > 50 µg/mL
* CC(C)(C)OC(=O)N1CCN(C(=O)c2ccsc2NC(=O)c2nc3ccccc3s2)CC1 | > 50 µg/mL
* CCOC(=O)NC(=O)c1ccsc1NC(=O)c1cc(NC(=O)C(C)(C)C)ncn1 | > 50 µg/mL
* CCOC(=O)NC(=O)c1ccsc1NC(=O)C1COc2ccc(OC)cc2C1 (stereo not drawn) | > 50 µg/mL
* CC(C)OC(=O)NC(=O)c1cc(F)sc1NC(=O)c1cn2ccccc2n1 | 25 to 50 µg/mL
* CCOC(=O)NC(=O)c1ccsc1NC(=O)c1cc(=O)c2ccccc2o1 | < 25 µg/mL
* CCOC(=O)NC(=O)c1ccsc1NC(=O)c1cc2nc(C)cc(C)n2n1 | > 50 µg/mL
* CCOC(=O)NC(=O)c1ccsc1NC(=O)c1cn2c(C)cccc2n1 | > 50 µg/mL
* CCOC(=O)NC(=O)c1ccsc1NC(=O)c1cc(O)ncn1 | > 50 µg/mL
* O=C(Nc1sccc1C(=O)Nc1nccs1)c1nc2cnccc2s1 | 25 to 50 µg/mL
* O=C(NCC(F)(F)F)NC(=O)c1ccsc1NC(=O)c1nc2ccccc2s1 | 25 to 50 µg/mL
* COC(=O)CCCNC(=O)c1ccsc1NC(=O)c1nc2ccccc2s1 | > 50 µg/mL
* O=C(NC(=O)c1ccsc1NC(=O)c1nc2ccccc2s1)OCCN1CCOCC1 | > 50 µg/mL
* O=C(NC(=O)c1ccsc1NC(=O)c1nc2cnccc2s1)OCCOCc1ccccc1 | 25 to 50 µg/mL
* CCN1CCN(C(=O)c2ccsc2NC(=O)c2nc3ccccc3s2)CC1 | 25 to 50 µg/mL
* CC(=O)N1CCC(OC(=O)NC(=O)c2ccsc2NC(=O)c2cn3ccccc3n2)CC1 | 25 to 50 µg/mL
* C=CCOC(=O)NC(=O)c1ccsc1NC(=O)c1nc2cnccc2s1 | 25 to 50 µg/mL
* CCOC(=O)NC(=O)c1ccsc1NC(=O)c1ccc2nccnc2c1 | < 25 µg/mL
* O=C(Nc1sccc1C(=O)Nc1cnccn1)c1nc2cnccc2s1 | 25 to 50 µg/mL
* CCOC(=O)NC(=O)c1ccsc1NCc1nc2ccccc2s1 | > 50 µg/mL
* O=C(NC(=O)c1cc(F)sc1NC(=O)c1nc2ccccc2s1)OCCN1CCOCC1 | < 25 µg/mL
* CCOC(=O)NC(=O)c1ccsc1NC(=O)c1cn2ccccc2n1 | > 50 µg/mL
* CCOC(=O)NC(=O)c1ccsc1NC(=O)c1nc2cnc(C)cc2s1 | > 50 µg/mL
* CC(C)(C)C(=O)Nc1cc(C(=O)Nc2sccc2C(=O)NC(=O)OCCF)ccn1 | 25 to 50 µg/mL
* O=C(NC(=O)c1ccsc1NC(=O)c1cn2ccccc2n1)OC1CCCCC1 | < 25 µg/mL
* CCOC(=O)NC(=O)c1ccsc1NC(=O)c1nc(S(C)(=O)=O)ncc1Cl | < 25 µg/mL
* O=C(Nc1sccc1C(=O)Nc1cccnn1)c1nc2cnccc2s1 | 25 to 50 µg/mL
* CCOC(=O)NC(=O)c1ccsc1NC(=O)c1cn2cc(C)ccc2n1 | > 50 µg/mL
* CCOC(=O)NC(=O)c1ccsc1NC(=O)c1ccc(-c2csc(C)n2)cc1 | > 50 µg/mL
* CCOC(=O)NC(=O)c1ccsc1NC(=O)c1cc2cnccc2s1 | > 50 µg/mL
* CCOC(=O)NC(=O)c1ccsc1NC(=O)c1ccnc(NC(=O)N2CCN(C)CC2)c1.Cl.Cl | > 50 µg/mL
* O=C(NC(=O)c1ccsc1NC(=O)c1nc2cnccc2s1)OCCC(F)(F)F | > 50 µg/mL
* COCCOC(=O)NC(=O)c1ccsc1NC(=O)c1cnc2ccnn2c1 | 25 to 50 µg/mL
* CCOC(=O)NC(=O)c1ccsc1NC(=O)/C=C/c1nc2ccccc2s1 | < 25 µg/mL

* * *

# ASSAY NAME: in vitro
# MEASUREMENT PARAMETERS: African green monkey
PROPERTY NAME: CC50

• CCOC(=O)NC(=O)c1ccsc1NC(=O)c1cn2c(n1)CCCC2 [Compound 309] = < 25 µg/mL
• CCOC(=O)NC(=O)c1ccsc1NC(=O)c1cc2ccccc2s1 [Compound 90] = 25 to 50 µg/mL
• CC(C)OC(=O)NC(=O)c1ccsc1NC(=O)c1cn2cc(S(C)(=O)=O)ccc2n1 [Compound 439] = 25 to 50 µg/mL
• CCOC(=O)NC(=O)c1ccsc1NC(=O)c1ccnc2ccc(OC)cc12 [Compound 123] = > 50 µg/mL
• CC(C)OC(=O)NC(=O)c1cc(F)sc1NC(=O)c1ccn2nccc2c1 [Compound 346] = < 25 µg/mL
• CCOC(=O)NC(=O)c1ccsc1NC(=O)c1nc2c(N(C)C)nccc2s1 [Compound 270] = > 50 µg/mL
• CCOC(=O)NC(=O)c1ccsc1NC(=O)c1sc(C)nc1C(F)(F)F [Compound 137] = > 50 µg/mL
• CCOC(=O)NC(=O)c1ccsc1NC(=O)c1ccnc(NC(=O)CN2CCOCC2)c1 [Compound 46] = > 50 µg/mL
• CCOC(=O)NC(=O)c1cc(F)sc1NC(=O)c1nc2ccccc2s1 [Compound 16] = 25 to 50 µg/mL
• CCOC(=O)NC(=O)c1ccsc1NC(=O)c1nc2ccc(Cl)cc2[nH]1 [Compound 72] = > 50 µg/mL
• CCOC(=O)NC(=O)c1ccsc1NC(=O)c1nc2cc(CNC(=O)OC(C)(C)C)cnc2s1 [Compound 411] = 25 to 50 µg/mL
• COc1ccc2c(c1)C=C(C(=O)Nc1sccc1C(=O)NC(=O)OC(C)C)CO2 [Compound 404] = < 25 µg/mL
• CCOC(=O)NC(=O)c1ccsc1NC(=O)c1nc2cnc(Cl)cc2s1 [Compound 267] = > 50 µg/mL
• COC(=O)CNC(=O)c1ccsc1NC(=O)c1nc2ccccc2s1 [Compound 234] = > 50 µg/mL
• O=C(NC(=O)c1ccsc1NC(=O)c1nc2ccccc2s1)OCc1ccccc1C(F)(F)F [Compound 294] = 25 to 50 µg/mL
• CCOC(=O)NC(=O)c1ccsc1NC(=O)c1ccc2ncsc2c1 [Compound 42] = < 25 µg/mL
• CCOC(=O)NC(=O)c1ccsc1NC(=O)c1ccc(=O)n(C)c1 [Compound 140] = > 50 µg/mL
• CCOC(=O)NC(=O)c1ccsc1NC(=O)c1ccc2cnccc2n1 [Compound 113] = > 50 µg/mL

* * *

# ASSAY NAME: in vitro
# MEASUREMENT PARAMETERS: African green monkey
Catalogue of compounds with associated CC50
PROPERTY NAME: CC50

* CCOC(=O)NC(=O)c1ccsc1NC(=O)c1cc2ccccn2c1 [Compound 310] | > 50 µg/mL
* CCOC(=O)NC(=O)c1ccsc1NC(=O)c1cc2c(s1)CCCC2 [Compound 239] | > 50 µg/mL
* CCOC(=O)NC(=O)c1ccsc1NC(=O)c1cnc2ccccc2n1 [Compound 87] | > 50 µg/mL
* CCOC(=O)NC(=O)c1cc(F)sc1NC(=O)c1ccn2nccc2c1 [Compound 343] | < 25 µg/mL
* O=C(NC(=O)c1ccsc1NC(=O)c1nc2ccccc2s1)OCC(F)F [Compound 40] | < 25 µg/mL
* CCOC(=O)NC(=O)c1ccsc1NC(=O)c1nc2ccc(C)nc2s1 [Compound 224] | > 50 µg/mL
* CCOC(=O)NC(=O)c1ccsc1NC(=O)c1nc(C(F)(F)F)cs1 [Compound 144] | > 50 µg/mL
* O=C(NC(=O)c1ccsc1NC(=O)c1nc2ncccc2s1)OCC(F)(F)F [Compound 434] | 25 to 50 µg/mL
* CCOC(=O)NC(=O)c1ccsc1NC(=O)c1nc2cc(CN)cnc2s1 [Compound 416] | > 50 µg/mL

All figures here come from patent US20160194299A1.
